- Species: Rattus norvegicus
- protocol_notes: Open TG-GATES - Regimen: Daily Repeat
- Format: toxicity, organism-based, Sprague-Dawley
- Parameters: regimen Daily Repeat, gender Male, age 6 weeks
- details: in vivo, po, 0 mg/kg, 72 h, tissue Blood, route gavage, dose level Control, time 3 day
# Lookup of reported Neu keyed by entry
Give the number; % is assumed, so skip it.

>>> obs_value("CC(=O)[C@@]1(O)CC[C@H]2[C@@H]3C=C(Cl)C4=CC(=O)CC[C@]4(C)[C@H]3CC[C@@]21C [CHLORMADINONE]")
18.4
>>> obs_value("O=c1ccc2ccccc2o1 [COUMARIN]")
24.2
>>> obs_value("CCCCNC(=O)NS(=O)(=O)c1ccc(C)cc1 [TOLBUTAMIDE]")
21.6
>>> obs_value("CN(CCOc1ccc(CC2SC(=O)NC2=O)cc1)c1ccccn1.O=C(O)/C=C\\C(=O)O (stereo not given) [ROSIGLITAZONE MALEATE]")
17.4
>>> obs_value("Nc1ccc(Cc2ccc(N)cc2)cc1")
20.2

Prompt: Recorded Neu of NS(=O)(=O)c1cc(C(=O)O)c(NCc2ccco2)cc1Cl [FUROSEMIDE] , please.
Response: 21.2

Prompt: Requested field: Neu. Item: CN(C/C=C/C#CC(C)(C)C)Cc1cccc2ccccc12 [TERBINAFINE]
Response: 19.2

Prompt: Given CC(S)C(=O)NCC(=O)O (stereo not given) [TIOPRONIN] , state its recorded Neu.
Response: 14.2

Prompt: Quick one: Neu for O=C(O)c1ccccc1Nc1ccccc1 [FENAMIC ACID] ?
Response: 20.6

Prompt: Look up Neu for this compound: CCO [ALCOHOL]
Response: 16

---

- Organism: Rattus norvegicus
- protocol_notes: Open TG-GATES - Regimen: Daily Repeat
- Assay type: toxicity, organism-based, Sprague-Dawley
- Parameters: regimen Daily Repeat, gender Male, age 6 weeks
- details: in vivo, po, 0 mg/kg, […], tissue Liver, route gavage, dose level Control, time 28 day
Recorded measurements of LIVER, one per entry
I only need the number, in g, no unit after it.

>>> obs_value("CC(S)C(=O)NCC(=O)O (centres undefined)")
15.9
>>> obs_value("CC(=O)[C@@]1(O)CC[C@H]2[C@@H]3C=C(Cl)C4=CC(=O)CC[C@]4(C)[C@H]3CC[C@@]21C")
17.2
>>> obs_value("Nc1ccc(Cc2ccc(N)cc2)cc1")
17.8

Prompt: Query: LIVER; subject: O=c1ccc2ccccc2o1
Response: 16.1

Prompt: Quick one: LIVER of CN(C/C=C/C#CC(C)(C)C)Cc1cccc2ccccc12 ?
Response: 15.6

Prompt: Entry O=C(O)c1ccccc1Nc1ccccc1 has what LIVER?
Response: 17

Prompt: Which LIVER is reported for this molecule? CCCCNC(=O)NS(=O)(=O)c1ccc(C)cc1 [TOLBUTAMIDE]
Response: 15.9

Prompt: # query: LIVER of entry CCO
Response: 13.9

Prompt: Requested field: LIVER. Item: CN(CCOc1ccc(CC2SC(=O)NC2=O)cc1)c1ccccn1.O=C(O)/C=C\C(=O)O (centres undefined) [ROSIGLITAZONE MALEATE]
Response: 17.1

---

- Species: Rattus norvegicus
- protocol_notes: Open TG-GATES - Regimen: Single
- Format: toxicity, organism-based, Sprague-Dawley
- Parameters: regimen Single, gender Male, age 6 weeks
- details: in vivo, po, 0 mg/kg, 6 h, tissue Plasma, route gavage, dose level Control
result_type: DBIL (mg/dL)
Report the figure in mg/dL without appending any unit label.

Some entries whose results are on file:
>>> obs_value("CC(=O)[C@@]1(O)CC[C@H]2[C@@H]3C=C(Cl)C4=CC(=O)CC[C@]4(C)[C@H]3CC[C@@]21C")
0
>>> obs_value("CN(C)CCCN1c2ccccc2Sc2ccc(Cl)cc21")
0.066
>>> obs_value("CCO")
0.06
>>> obs_value("CN(CCOc1ccc(CC2SC(=O)NC2=O)cc1)c1ccccn1.O=C(O)/C=C\\C(=O)O (stereo not given) [ROSIGLITAZONE MALEATE]")
0.01

Prompt: // returns reported DBIL for input O=c1ccc2ccccc2o1
Response: 0.002
